- TARGET OR TEST SYSTEM: T1, EGFR Fc (human, UniProt P00533 25-645)
- T1 construct: also called EGFR-hFc; recombinant human EGFR-Fc
- ASSAY SUMMARY: blocking ELISA, EGFR-hFc + VHH at 8 nM on coated EGF-mFc
RECORDED ENDPOINT: OD450

binder="pgEG5 (VHH, not shown: small tags and cut ends) VHH: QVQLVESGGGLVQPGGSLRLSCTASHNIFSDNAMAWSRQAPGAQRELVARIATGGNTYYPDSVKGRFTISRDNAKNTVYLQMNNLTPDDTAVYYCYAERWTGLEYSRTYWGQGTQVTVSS" recorded_endpoint=OD450 readout_number=1.07
binder="pgEG-SX3 (VHH, not shown: small tags and cut ends) VHH: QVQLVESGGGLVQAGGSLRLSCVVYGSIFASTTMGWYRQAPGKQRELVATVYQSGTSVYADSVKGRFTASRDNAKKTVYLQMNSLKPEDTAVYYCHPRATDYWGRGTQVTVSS" recorded_endpoint=OD450 readout_number=0.562
binder="pgEG-SX40 (VHH, not shown: small tags and cut ends) VHH: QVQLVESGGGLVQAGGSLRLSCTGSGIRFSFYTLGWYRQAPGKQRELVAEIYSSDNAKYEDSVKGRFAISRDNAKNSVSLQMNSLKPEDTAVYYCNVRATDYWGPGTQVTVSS" recorded_endpoint=OD450 readout_number=0.633
binder="pgEG-SX22 (VHH, not shown: small tags and cut ends) VHH: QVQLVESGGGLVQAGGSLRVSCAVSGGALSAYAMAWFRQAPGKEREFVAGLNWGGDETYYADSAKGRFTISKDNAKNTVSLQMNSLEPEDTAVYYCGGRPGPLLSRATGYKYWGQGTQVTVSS" recorded_endpoint=OD450 readout_number=0.736
